B1: Ankyrin-1, residues 1405 to 1484; numbered along this chain, P16157 (parent)
chain: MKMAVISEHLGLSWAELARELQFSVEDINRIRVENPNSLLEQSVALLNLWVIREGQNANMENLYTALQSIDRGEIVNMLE

Variants of: B1
test.protocol: abundance fitness (aPCA) (normalised: wild type 0, dead -1); higher = more abundant; growth selection in yeast, the domain comes from the species named
test.conditions: Homo sapiens
Answer no (0) if abundance fitness is under -0.1, and yes (1) if it is -0.1 or more.

Some solved entries appear below for comparison.
>>> label_value("MKMAVISEHLGLSWAELARELQFSVEDINRIRVENPNSLLEQSVALLMLWVIREGQNANMENLYTALQSIDRGEIVNMLE [N48M]")
"no (0)"
>>> label_value("MKMAVISEHLGLSWAELARELQFSVEDINRIRVENGNSLLEQSVALLNLWVIREGQNANMENLYTALQSIDRGEIVNMLE [P36G]")
"no (0)"
>>> label_value("MKMAVISEHLGLSWAELARELQFSVEDINRIRVENPNSLLEQSVALLNLWVIREGQNANMENLYTSLQSIDRGEIVNMLE [A66S]")
"no (0)"

Hello, I need to know if MKMAVISEHLGLSWAELARELQFSVEDINRIRVENPNSLLEQSVALLNLWVIREGQNANMENLETALQSIDRGEIVNMLE [Y64E] has measured abundance fitness not below -0.1. Thanks!
no (0)

What would you report for MKMAVISEHLGLSWAELARELQFSVEDINRIRVENPNSLLFQSVALLNLWVIREGQNANMENLYTALQSIDRGEIVNMLE [E41F] ?
no (0)

# credit: the Human Domainome abundance scans (Beltran et al. 2025)
